# measuredTarget: intracellular domain of human Tie2 (GST fusion protein) (Homo sapiens, UniProt Q02763)
# Construct: intracellular domain of human Tie2 (amino acids 776-1124)
# Sequence (Q02763 776-1124): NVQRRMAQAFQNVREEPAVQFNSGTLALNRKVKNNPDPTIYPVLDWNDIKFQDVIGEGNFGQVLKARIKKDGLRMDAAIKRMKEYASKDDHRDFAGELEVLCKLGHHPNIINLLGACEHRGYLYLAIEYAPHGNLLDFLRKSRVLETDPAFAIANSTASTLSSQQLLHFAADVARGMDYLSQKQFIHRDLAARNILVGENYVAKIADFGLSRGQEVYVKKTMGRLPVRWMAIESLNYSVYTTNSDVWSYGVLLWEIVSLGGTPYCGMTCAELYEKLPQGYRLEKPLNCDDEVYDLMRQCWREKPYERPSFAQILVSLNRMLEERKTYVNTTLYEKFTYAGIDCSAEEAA
# assayOverview: Tie2 kinase assay (Tie2-TR-FRET)
# assayConditions: ATP concentration 1 mM, in some cases means of several independent determinations
# reported pIC50; entries follow
# reply with the number alone; pIC50 is -log10 of concentration in mol/L

Worked examples follow.
{"smilesStr": "Cc1ccc(NC(=O)c2cc(O)cc(S(F)(F)(F)(F)F)c2)cc1-n1ccn2nc(-c3cccnc3)cc12", "pIC50": 8.51}
{"smilesStr": "Cc1ccc(NC(=O)c2cc(N3CCOCC3)cc(S(F)(F)(F)(F)F)c2)cc1-n1ccn2nc(-c3cccnc3)cc12", "pIC50": 9.05}
{"smilesStr": "Cc1ccc(NC(=O)c2cc(-n3ccnc3C)cc(C(F)(F)F)c2)cc1-n1cc(C)n2nc(-c3cn[nH]c3)cc12", "pIC50": 9.40}
{"smilesStr": "Cc1ccc(NC(=O)c2cc(N(C)CCCN(C)C)cc(C(F)(F)F)c2)cc1-n1ccn2nc(-c3cccnc3)cc12", "pIC50": 8.82}

Field: next compound
IN: Given the entry `Cc1cc(C)c(-n2ccn3nc(-c4cccnc4)cc23)cc1NC(=O)c1cccc(OC(C)C)c1` , report its measured pIC50.
OUT: 8.34
